System: HeLa
Assay: Antiproliferative activity, resazurin assay, 72 h
Type: cell-based, human
Field: label. Allowed values: 1 (yes) (GI50 < 2 µM) or 0 (no) (GI50 >= 2 µM).

- compound: "[Br-].[Br-].c1cc2c(s1)c(N1CCCC1)cc[n+]2Cc1ccc(CCCCc2ccc(C[n+]3ccc(N4CCCC4)c4sccc43)cc2)cc1 [Ff-1]"
  system.under.test: "HeLa"
  discrete.label: "1 (yes)"

Pending compound:
Qu. In plain terms, does [Br-].[Br-].c1cc2c(s1)c(N1CCCCC1)nc[n+]2Cc1ccc(CCc2ccc(C[n+]3cnc(N4CCCCC4)c4sccc43)cc2)cc1 [Fa-25] come in under 2 µM for GI50?
Ans. 1 (yes)

* * *

% Inhibition at 10 µM for assorted compounds
Biological target: CKα1 (Homo sapiens)
Construct: an N-terminally His-tagged truncated form of CKα1 (Δ75–457) was cloned into a pET-28a vector; His tag (N); made in house; host or cells: E. coli BL21 (DE3) Star
Assay: Choline kinase assay ([methyl-14C]choline into PCho, purified enzyme)
Format: biochemical
Conditions: purified CKα1, inhibitor 10 µM, end-point assay
Numeric only. Scale: %

# annotated cases, reported % Inhibition at 10 µM shown
- substance.smiles: "[Br-].[Br-].c1cc2c(s1)c(N1CCCC1)nc[n+]2Cc1ccc(CCc2ccc(C[n+]3cnc(N4CCCC4)c4sccc43)cc2)cc1"
  system.under.test: "CKα1 (Homo sapiens)"
  units.text: "%"
  % Inhibition at 10 µM: 80.28
- substance.smiles: "[Br-].[Br-].c1cc2c(N3CCCC3)nc[n+](Cc3ccc(-c4ccc(C[n+]5cnc(N6CCCC6)c6ccsc65)cc4)cc3)c2s1"
  system.under.test: "CKα1 (Homo sapiens)"
  units.text: "%"
  % Inhibition at 10 µM: 80.28
- substance.smiles: "[Br-].[Br-].c1cc2c(N3CCCCC3)nc[n+](Cc3ccc(-c4ccc(C[n+]5cnc(N6CCCCC6)c6ccsc65)cc4)cc3)c2s1"
  system.under.test: "CKα1 (Homo sapiens)"
  units.text: "%"
  % Inhibition at 10 µM: 75.46

Attention now turns to another entry.
`[Br-].[Br-].c1cc2c(s1)c(N1CCCCC1)nc[n+]2Cc1ccc(-c2ccc(C[n+]3cnc(N4CCCCC4)c4sccc43)cc2)cc1` on CKα1 (Homo sapiens) gives % Inhibition at 10 µM = 84.64

* * *

Biological target: CKα1 (Homo sapiens, UniProt P35790)
Construct: an N-terminally His-tagged truncated form of CKα1 (Δ75–457) was cloned into a pET-28a vector; His tag (N); made in house; host or cells: E. coli BL21 (DE3) Star
Sequence (P35790 75-457): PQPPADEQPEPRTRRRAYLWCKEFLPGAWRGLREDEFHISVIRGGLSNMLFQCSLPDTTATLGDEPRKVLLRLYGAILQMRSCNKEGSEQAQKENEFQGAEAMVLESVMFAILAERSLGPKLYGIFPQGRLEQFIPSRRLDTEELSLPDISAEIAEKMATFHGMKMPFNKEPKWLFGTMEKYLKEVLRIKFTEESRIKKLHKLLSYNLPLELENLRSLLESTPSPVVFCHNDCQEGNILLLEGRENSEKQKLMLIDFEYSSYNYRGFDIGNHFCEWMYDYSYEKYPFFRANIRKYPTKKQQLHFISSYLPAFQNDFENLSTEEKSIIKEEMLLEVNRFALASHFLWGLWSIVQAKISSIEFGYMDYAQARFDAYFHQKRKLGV
Assay: Choline kinase assay ([methyl-14C]choline into PCho, purified enzyme)
Type: biochemical
Details: purified CKα1, inhibitor 10 µM, end-point assay
Experimental: The protein was produced and purified as previously described. […] To study the effect of the compounds on CKα, an in vitro enzymatic assay was performed using the purified enzyme as previously reported in [19, 28, 29]. […] The radioactivity associated into PCho was determined in a Beckman 6000-TA (Madrid, Spain) liquid scintillation counter. […]
Each entry gets no if its % Inhibition at 10 µM stays under 80%, and yes if its % Inhibition at 10 µM is 80% or above.

- substance.smiles: "[Br-].[Br-].c1cc2c(N3CCCCCC3)nc[n+](Cc3ccc(OCCOc4ccc(C[n+]5cnc(N6CCCCCC6)c6ccsc65)cc4)cc3)c2s1"
  discrete.label: "yes"
- substance.smiles: "[Br-].[Br-].c1cc2c(N3CCCC3)nc[n+](Cc3ccc(OCCOc4ccc(C[n+]5cnc(N6CCCC6)c6ccsc65)cc4)cc3)c2s1"
  discrete.label: "no"
- substance.smiles: "[Br-].[Br-].c1cc2c(N3CCCC3)nc[n+](Cc3ccc(CCc4ccc(C[n+]5cnc(N6CCCC6)c6ccsc65)cc4)cc3)c2s1"
  discrete.label: "no"

Qu. Hello, I need to know if `[Br-].[Br-].c1cc2c(s1)c(N1CCCC1)nc[n+]2Cc1ccc(-c2ccc(C[n+]3cnc(N4CCCC4)c4sccc43)cc2)cc1` has measured % Inhibition at 10 µM not below 80%. Thanks!
Ans. no

Qu. Quick check, % Inhibition at 10 µM >= 80%? `[Br-].[Br-].c1cc2c(s1)c(N1CCCC1)cc[n+]2Cc1ccc(CCc2ccc(C[n+]3ccc(N4CCCC4)c4sccc43)cc2)cc1`
Ans. yes

Measured values drawn from paper PMC9032693 for this set.
